Assay: Selectivity index, ratio of CC50 for african green monkey Vero cells to EC50 for Herpes simplex virus 1
Assay type: toxicity, cell-based
Details: read-out: Ratio CC50/EC50
PARAMETER MEASURED: selectivity ratio

- SMILES REPRESENTATION: "Nc1nc2c(ncn2COCCO)c(=O)[nH]1"
  PARAMETER MEASURED: "selectivity ratio"
  ASSAY RESULT: 880
- SMILES REPRESENTATION: "CCOC(=O)c1cnc2c(cnn2-c2ccccc2)c1Nc1cccc([N+](=O)[O-])c1"
  PARAMETER MEASURED: "selectivity ratio"
  ASSAY RESULT: 141
- SMILES REPRESENTATION: "O=C(O)c1cnc2c(cnn2-c2ccccc2)c1Nc1cccc(Br)c1"
  PARAMETER MEASURED: "selectivity ratio"
  ASSAY RESULT: 272
